Attribution: PubChem BioAssay AID1376

biological target: Bifunctional protein GlmU (Mycobacterium tuberculosis (strain ATCC 25618 / H37Rv)); test: inhibition of mycobacterial GlmU enzyme – biochemical, glucosamine-1-phosphate acetyltransferase (AID 1376);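 also: 0% = complete reaction with vehicle and 100% = reaction without substrate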; conditions: M. tuberculosis GlmU acetyltransferase enzyme assay; active compounds read high;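 tested at 30 µM in the primary screen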
In all, about 220,000 compounds went through this assay and about 530 (0.24%) were called active. The entries come from a sample that favours actives as a whole. Potency and affinity values are given separately.
Answer each item with its documented inhibition.
Give the value in % but do not write % after it.

molecule Nn1c(Cc2ccc(F)cc2)n[nH]c1=S , inhibition observed: -2.75

Cc1ccc(NC(=O)N2CCC(NC(=O)C(C)(C)C)CC2)cc1 has a reported inhibition of 2.86

For reference, reported inhibition for CC(=O)N1CCC(Nc2ccc(C)cc2)CC1 stands at 14

Quick note, inhibition for CCCCOc1ccc(Cc2n[nH]c(=S)n2N)cc1 landed at 12.8

Recorded inhibition (molecule CC(C)CCN1CCN(CC(c2ccccc2)c2ccccc2)CC1CCO (configuration not stated) ): 14

// recorded inhibition for CCCS(=O)(=O)Nc1cccc(-c2nc3cccnc3s2)c1 : 3.55

Lab book: inhibition of O=C(/C=C/c1ccco1)NC(=S)Nc1cc(-c2nc3ccccc3s2)ccc1Cl noted as 13

Noted for Cc1ccc(NS(=O)(=O)c2ccc(C3CCCCC3)cc2)cc1 : its inhibition reads -5.89

inhibition in this record for CCOc1cc2c(cc1C=O)OC(C)C2 (configuration not stated) : -3.18

Sample Cc1nn(Cc2ccc([N+](=O)[O-])cc2)c(=O)n1N(C)c1ncc(C(F)(F)F)cc1Cl ; inhibition observed: 13.8

The molecule Oc1ccc(Cl)cc1/C=N/c1nccs1 showed inhibition equal to 5.12

The value of inhibition measured for the molecule CCS(=O)(=O)Nc1ccc(-c2nc3cccnc3s2)cc1 turned out to be 0.1

====

molecular target: Bifunctional protein GlmU (Mycobacterium tuberculosis (strain ATCC 25618 / H37Rv)); test: inhibition of mycobacterial GlmU enzyme – biochemical, glucosamine-1-phosphate acetyltransferase (AID 1376);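 also: 0% = complete reaction with vehicle and 100% = reaction without substrate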; conditions: M. tuberculosis GlmU acetyltransferase enzyme assay;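 tested at 30 µM in the primary screen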
Among all 220,000 compounds or so, about 530 (0.24%) were called active. Rule as the data show it: active = inhibition above about 13%; inconclusive = no clear call, values can overlap the other calls; inactive = below that. Only a selection was taken, and actives are over-represented in it overall. Potency and affinity values are given separately.
Write down the outcome that applies. Available outcomes: true (1) for active, false (0) for inactive

Input line: // outcome(item) with item = COc1ccc(OCCC(=O)OCc2c(C)noc2C)cc1
Output line: false (0)

Input line: Record request — test call for O=[N+]([O-])c1cccc(-c2csc(CS(=O)(=O)Cc3ccco3)n2)c1
Output line: false (0)

Input line: Per the assay record, what outcome was assigned to Cc1noc(C)c1COC(=O)C(c1ccccc1)c1ccccc1 ?
Output line: false (0)

Input line: I would be grateful if you could indicate the recorded call for COc1ccc(-c2noc(CSc3nc(-c4ccccc4)cc(=O)[nH]3)n2)cc1OC .
Output line: false (0)

Input line: What classification did O=C(O)c1cccc(Cn2c(Cl)c(/C=N/NC(=O)c3ccccc3)sc2=O)c1 end up with in this test?
Output line: false (0)

Input line: Assay outcome for Cc1noc(C)c1COC(=O)CCOc1ccccc1 : what was it?
Output line: true (1)

====

target: Bifunctional protein GlmU (Mycobacterium tuberculosis (strain ATCC 25618 / H37Rv)) (UniProt P9WMN3); experiment: inhibition of mycobacterial GlmU enzyme – biochemical, glucosamine-1-phosphate acetyltransferase (AID 1376);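 also: 0% = complete reaction with vehicle and 100% = reaction without substrate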; settings: M. tuberculosis GlmU acetyltransferase enzyme assay;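 tested at 30 µM in the primary screen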
Sequence (P9WMN3 whole entry, looked up): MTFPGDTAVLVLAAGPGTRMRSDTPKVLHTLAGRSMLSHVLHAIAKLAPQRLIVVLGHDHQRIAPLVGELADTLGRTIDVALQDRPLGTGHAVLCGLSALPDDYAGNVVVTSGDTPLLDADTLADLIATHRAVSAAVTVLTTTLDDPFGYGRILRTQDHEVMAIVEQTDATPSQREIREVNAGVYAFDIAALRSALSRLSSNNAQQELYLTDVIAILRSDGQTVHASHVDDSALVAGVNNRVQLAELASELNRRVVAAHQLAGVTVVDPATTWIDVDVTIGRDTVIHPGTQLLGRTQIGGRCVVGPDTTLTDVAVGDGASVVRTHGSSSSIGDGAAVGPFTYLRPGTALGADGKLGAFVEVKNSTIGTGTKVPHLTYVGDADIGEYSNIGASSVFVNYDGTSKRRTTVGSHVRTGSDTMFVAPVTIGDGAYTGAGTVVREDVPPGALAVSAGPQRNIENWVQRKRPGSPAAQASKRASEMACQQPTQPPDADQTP
Out of some 220,000 compounds screened, about 530 (0.24%) were called active. Rule as the data show it: active = inhibition above about 13%; inconclusive = no clear call, values can overlap the other calls; inactive = below that. What follows is part of a selection rich in actives, with near analogues and random picks from the rest. Entries with a potency or affinity are not part of this list.
Write down one outcome, taken from class 1 for active, class 0 for inactive

Input line: // return assay outcome for Cc1cc(C(=O)CN2C(=O)C(=O)N(C3CCCC3)C2=O)c(C)n1-c1ccc(F)cc1
Output line: class 0

Input line: Give the logged outcome of this assay for the following molecule: CCN1CCN(C(=O)C23CCC(C)(C(=O)C2Br)C3(C)C)CC1 (configuration not stated)
Output line: class 0

Input line: Outcome? O=C1OCc2cccc([N+](=O)[O-])c21
Output line: class 0

Input line: What outcome does the record of this test show for CC(=O)Nc1ccc(/C=C(\C#N)C(=O)NC2CCCCC2C)cc1 (configuration not stated) ?
Output line: class 0

Input line: Tell me the recorded outcome of this test for Cc1ccc2c(c1)sc1nc(=O)n(-c3ccc(Cl)cc3)c(=O)n12 .
Output line: class 0

Input line: # outcome recorded in this test, key = Cc1cc(C)cc(NC(=O)C2CCCC2)c1
Output line: class 0

Input line: Which outcome was entered for the molecule COc1ccc(C2CC(c3ccccc3)=NN2C(=O)c2cccs2)cc1 (configuration not stated) in this test?
Output line: class 0

Input line: Please state the recorded outcome for this molecule: COc1ccccc1C1=NNC(=NCc2ccccc2)SC1
Output line: class 0

Input line: // param item: CC(=O)c1cccc(NC(=O)C2CCCC2)c1 ; yields the recorded call
Output line: class 0

Input line: Call for entry O=C(O)C(Cl)Cl :
Output line: class 0

Input line: Just curious, what result did CCn1c(C)nc2cc(C(=O)N/N=C/c3ccc(O)c(O)c3O)ccc21 get here?
Output line: class 1

Input line: Would you mind telling me which call this test gave CC(=O)c1ccc(N2CCN(C(=S)Nc3ccccc3F)CC2)cc1 ?
Output line: class 0
